Provide the reported log10 biotransformation half-life (days) of each item.
Details: fish
Numbers only.

Worked cases, answers included:
INPUT: Fill in: log10 biotransformation half-life (days) of "Clc1ccc(-c2c(Cl)ccc(Cl)c2Cl)cc1Cl" is ___
OUTPUT: 2.63

INPUT: Record request: log10 biotransformation half-life (days) value, item "CC(C)(C)c1cc(-n2nc3ccc(Cl)cc3n2)c(O)c(C(C)(C)C)c1"
OUTPUT: 0.72

We now examine a further compound.
INPUT: // returns reported log10 biotransformation half-life (days) for input "Clc1cc(Cl)c(Cl)c(-c2cc(Cl)c(Cl)c(Cl)c2Cl)c1"
OUTPUT: 2.51

* * *

MEASURE NAME: melting point (°C)
Answers are plain numbers, in °C.

INPUT: Sample "CC1=NN(c2ccc(C)cc2)C(=O)C1" — what was its melting point?
OUTPUT: 138

Quick batch: melting point for everything below.
1. CCNC(=O)NCC
2. CCOC(=O)C(F)(F)C(F)(F)F
3. CCCCCCCC/C=C\CCCCCCCCCCCC(=O)O
4. O=[N+]([O-])c1cc(N(CCO)CCO)ccc1NCCO
5. Clc1ccc(Cl)c(Br)c1
6. CCSC
7. FC1(F)C(F)(F)C(F)(Cl)C1(F)Cl (stereo not drawn)
8. NC(=O)C(Cl)(Cl)Cl

OUTPUT:
1. 112
2. 75.5
3. 33.5
4. 95.5
5. 35
6. -106
7. -24.2
8. 142

Look up melting point for the entries below, preserving their order.
1. Cc1ccc2cc3ccccc3cc2c1
2. Nc1c(F)cc(F)cc1F
3. Cc1cncc(C)n1
4. COc1ccc2c3c1O[C@H]1[C@@H](O)C=C[C@H]4[C@@H](C2)N(C)CC[C@@]341
5. O=C(O)c1c(F)cc(F)cc1F
6. FC(Cl)(Cl)C(Cl)(Cl)Cl
7. CC(C)Oc1ccccc1
8. O=C(O)c1ccc(F)cc1F

OUTPUT:
[209, 35, 47.5, 158, 143, 101, -33, 189]

Provide melting point for all items below, preserving their order.
1. O=c1cc(-c2ccccc2)oc2cc(O)ccc12
2. COC(=O)c1c(C)cc(OC(=O)c2c(C)cc(O)c(C=O)c2O)c(C)c1O
3. O=C(O)CCC(=O)c1ccc2c(c1)-c1cccc3cccc-2c13
4. CC(F)(Cl)Cl
5. CC(C)(C)Oc1ccccc1
6. CCCCCCCCCCCC[N+](C)(C)CCOc1ccccc1.[Br-]

OUTPUT:
[246, 195, 208, -104, -24, 112]

* * *

Provide the reported log10 Koc (L/kg) of each item.
Answers are plain numbers.

Previously resolved entries follow.
INPUT: Please report the recorded log10 Koc (L/kg) for CCCCC(CC)COC(=O)c1ccc(C(=O)OCC(CC)CCCC)cc1 (stereo not given) .
OUTPUT: 4.16

INPUT: Using the record for CC(Cl)CCl (stereo not given) , report its log10 Koc (L/kg).
OUTPUT: 1.67

INPUT: Look at this compound and give its reported log10 Koc (L/kg). CCOP(=S)(OCC)OC(Cl)C(Cl)(Cl)Cl (stereo not given)
OUTPUT: 3.6

Would you mind giving log10 Koc (L/kg) for every compound in the list below?
1. CSc1c(N)nc(N)nc1Cl
2. O=C(Nc1ccc([N+](=O)[O-])cc1Cl)c1cc(Cl)ccc1O
3. C=C(Cl)Cl
4. Cc1ccc(C(=O)O)cc1
5. CCCN(CCC)c1c([N+](=O)[O-])cc(S(N)(=O)=O)cc1[N+](=O)[O-]
6. CNC(=O)Nc1ccc(C)c(Cl)c1
7. C=CCc1ccc2c(c1)OCO2
8. Nc1c(Cl)c(Cl)cc(Cl)c1Cl

OUTPUT:
[2.08, 3.35, 1.81, 1.77, 3.4, 2.1, 2.83, 3.94]

* * *

MEASURE NAME: melting point (°C)
Give bare numbers, in °C.

A selection of reference data follows.
INPUT: Can you share its melting point? I mean this molecule: "c1ccc(Nc2ccccc2)cc1"
OUTPUT: 52.9

INPUT: Return reported melting point; argument: "CCCCCCCCCCCCCCCC(=O)Cl"
OUTPUT: 12

INPUT: // query melting point value for entry "O=[N+]([O-])c1ccc(I)cc1"
OUTPUT: 175

INPUT: // query melting point value for entry CC(Cl)C(C)Cl (stereo not given)
OUTPUT: -80

INPUT: Would you mind telling me what melting point value was observed for "CC[C@H]1OC(=O)[C@H](C)[C@@H](O[C@@H]2O[C@H](C)C[C@H](N(C)C)[C@H]2O)[C@@H](C)C[C@@H](C)C(=O)C=C[C@]1(C)O" ?
OUTPUT: 196

List melting point for every entry below, keeping the order given.
1. O=[N+]([O-])C(Br)(Br)Br
2. COC(=O)c1ccc(I)cc1
3. Clc1cccc(Cl)n1
4. FC1(F)C(F)(F)C(F)(F)C1(F)F

OUTPUT:
1: 10; 2: 115; 3: 88; 4: -40.1

Quick one: give me melting point for each item below, same order please.
1. Cc1ccc(C)c([N+](=O)[O-])c1
2. CCN(CC)C(=O)CSc1ccc(Cl)nn1
3. c1ccc(OB(Oc2ccccc2)Oc2ccccc2)cc1

OUTPUT:
1. -25
2. 97
3. 99.5

* * *

Consider the cut-off 2. If the recorded log10 Koc (L/kg) is strictly smaller, the label is label 1; if not, the label is label 0.

Study these solved cases before continuing.
INPUT: Does the reported log10 Koc (L/kg) of "CCCCCCCC(=O)Oc1c(Br)cc(C#N)cc1Br" stay below 2?
OUTPUT: label 0

INPUT: is_below(log10 Koc (L/kg), 2) for CCC(C)c1ccccc1OC(=O)NC (configuration not stated) ?
OUTPUT: label 1

INPUT: Below 2 on log10 Koc (L/kg)? Entry "c1ccc(NNc2ccccc2)cc1"
OUTPUT: label 0

INPUT: # TODO verify log10 Koc (L/kg) < 2 strictly for this compound: "CCOC(=O)c1ccc([N+](=O)[O-])cc1"
OUTPUT: label 0

INPUT: is_below(log10 Koc (L/kg), 2) for C1OC1C1CO1 (configuration not stated) ?
OUTPUT: label 1

We next turn to a different compound, shown below.
INPUT: Take the compound CCN(CC)C(=O)C(C)Oc1cccc2ccccc12 (configuration not stated) and say whether its log10 Koc (L/kg) is less than 2.
OUTPUT: label 0

* * *

Entry class follows boiling point: lowest: < 100 °C; middle: ≥ 100 °C and < 200 °C; highest: ≥ 200 °C

Check out these entries, answers already filled in.
INPUT: Category of "Cc1cccc(C)c1[N+](=O)[O-]" :
OUTPUT: highest

INPUT: // return the class label for "Clc1nc2ccccc2s1"
OUTPUT: highest

INPUT: Hi, small favor: classify "CC=CC(C)C" by its boiling point when you get a moment.
OUTPUT: lowest

INPUT: Exam item: assign "CC[C@H](O)C(C)C" to the correct category.
OUTPUT: middle

INPUT: Pick a category. Item: CCCCC(CC)COC(=O)Cl (stereo unspecified)
OUTPUT: highest

INPUT: # bin label for CC1CCCO1 (stereo unspecified)
OUTPUT: lowest

INPUT: Please indicate the class for "CC#CC(=O)OCC" based on its boiling point.
OUTPUT: middle

INPUT: Assign a bin to "N#CCO"
OUTPUT: middle

INPUT: Sort into band: "Cc1ccsc1C"
OUTPUT: middle

INPUT: Field: class (boiling point) — entry: FC(Cl)CCl (stereo unspecified)
OUTPUT: lowest

More entries:
INPUT: Band assignment needed for "CCOOCC" please.
OUTPUT: lowest

INPUT: Which category does the recorded boiling point put "C#CCCCCCCCCCC" in?
OUTPUT: highest

INPUT: Which category does the recorded boiling point put "ClCCC(Cl)(Cl)Cl" in?
OUTPUT: middle

INPUT: Sort "c1ccc(C(c2ccccc2)c2ccccc2)cc1" into one of the categories.
OUTPUT: highest

* * *

Exercise: state measured melting point for each of the compounds provided.
Hey, just the number and the unit after it is fine.

INPUT: Any idea what its melting point is? The compound is "O=C(O)c1cc(O)c2ccccc2n1"
OUTPUT: 282 °C

INPUT: Which melting point reading was recorded for the compound "O=c1occcc1O" ?
OUTPUT: 93.8 °C

INPUT: Entry under review: CC(Oc1ccc(Oc2ccc(Cl)cc2Cl)cc1)C(=O)O (stereo not drawn) . Reported melting point?
OUTPUT: 120 °C

INPUT: Form field: reported melting point of "CCc1cc2c(s1)N(C)C(=O)CN=C2c1ccccc1Cl"
OUTPUT: 119 °C

INPUT: Requested field: melting point. Item: "CCOC(=O)Nc1ccc(NCc2ccc(F)cc2)nc1N"
OUTPUT: 116 °C

Hi! Can you tell me melting point for each of these compounds?
1. CCOC(=O)CC#N
2. CC1(C)O[C@@H]2C[C@H]3[C@@H]4CCC5=CC(=O)C=C[C@]5(C)[C@H]4[C@@H](O)C[C@]3(C)[C@]2(C(=O)CO)O1
3. O=C1c2c(O)cccc2Cc2cccc(O)c21

OUTPUT:
-22.5 °C
274 °C
179 °C

For every item below, please supply its melting point.
1. O[C@@H](c1ccccc1)[C@@H](O)c1ccccc1
2. CCCCOCN(C(=O)CCl)c1c(CC)cccc1CC
3. Sc1ccc(Cl)cc1
4. O=C(O)CSc1ccccc1
5. C#CCl

OUTPUT:
["138 °C", "-2.8 °C", "61 °C", "65 °C", "-126 °C"]
